Each item that follows carries a reported melting point.

Some entries whose results are on file:
• CC(=O)C1=C(O)C(=O)N(c2nc3c(Cl)cccc3s2)C1c1ccc(F)cc1 (stereo not shown) = 231 to 232 °C
• CC(C)(C)C(=O)C1=C(O)C(=O)N(c2nc3ccc(F)cc3s2)C1c1ccc(F)cc1 (stereo not shown) = 232 to 233 °C
• CCOc1ccc2nc(N3C(=O)C(O)=C(C(=O)c4ccc(C)o4)C3c3cccc(F)c3)sc2c1 (stereo not shown) = 248 to 249 °C
• Cc1ccc(C(=O)C2=C(O)C(=O)N(c3nc4ccc(Cl)cc4s3)C2c2cccc3ccccc23)o1 (stereo not shown) = 260 to 261 °C

Q: // returns reported melting point for input CCOC(=O)CCC(=O)C1=C(O)C(=O)N(c2nc3ccc(Cl)cc3s2)C1c1ccc(F)cc1 (stereo not shown)
Result: 224 to 225 °C

Q: May I ask what melting point has been recorded for CC(=O)C1=C(O)C(=O)N(c2nc3ccc(Cl)cc3s2)C1c1ccc(F)cc1 (stereo not shown) ?
Result: 238 to 239 °C

Q: Returns the measured melting point for the input compound. Input: Cc1ccc(C(=O)C2=C(O)C(=O)N(Cc3cccs3)C2c2ccc(F)cc2)o1 (stereo not shown)
Result: 225 to 226 °C

Q: Look at this compound and give its reported melting point. Cc1ccc(C(=O)C2=C(O)C(=O)N(c3nc4cc(Cl)ccc4o3)C2c2ccccc2F)o1 (stereo not shown)
Result: 244 to 245 °C

---

Item-by-item account of melting point

* COc1ccccc1CC(=O)C1=C(O)C(=O)N(c2nc3ccc(Cl)cc3s2)C1c1ccc(F)cc1 (stereo not shown) | 253 to 255 °C
* COCC(=O)C1=C(O)C(=O)N(c2nc3ccc(Cl)cc3s2)C1c1ccc(F)cc1 (stereo not shown) | 263 to 264 °C
* COCC(=O)C1=C(O)C(=O)N(c2nc3c(Cl)cccc3s2)C1c1ccccc1F (stereo not shown) | 231 to 233 °C
* CCOC(=O)C1=C(O)C(=O)N(c2nc3ccc(F)cc3s2)C1c1ccc(F)cc1 (stereo not shown) | 218 to 219 °C
* Cc1ccc(C(=O)C2=C(O)C(=O)N(c3nc4c(Cl)cccc4s3)C2c2ccc(C)o2)o1 (stereo not shown) | 224 to 225 °C
* CCOc1ccc2nc(N3C(=O)C(O)=C(C(=O)c4ccc(C)o4)C3c3cccc(C#N)c3)sc2c1 (stereo not shown) | 226 to 227 °C
* Cc1ccc(C(=O)C2=C(O)C(=O)N(c3ccc4ncsc4c3)C2c2ccc(F)cc2)o1 (stereo not shown) | 221 to 222 °C
* CC(=O)N1CCCC1C(=O)C1=C(O)C(=O)N(c2nc3ccc(Cl)cc3s2)C1c1ccc(F)cc1 (stereo not shown) | 268 to 272 °C

Q: Report melting point for Cc1ccc(C(=O)C2=C(O)C(=O)N(c3nc4ccc(Cl)cc4s3)C2c2ccc(F)c(F)c2)o1 (stereo not shown) please.
Result: 235 to 236 °C

Q: So what does the record say about melting point for O=C(C1=C(O)C(=O)N(c2nc3c(Cl)cccc3s2)C1c1ccc(F)cc1)C1CCC1 (stereo not shown) ?
Result: 232 to 233 °C

Q: Would you kindly share the measured melting point for Cc1ccc(C(=O)C2=C(O)C(=O)N(c3nc4ccc(F)cc4s3)C2c2ccccc2C)o1 (stereo not shown) ?
Result: 214 to 215 °C

Q: Which melting point value belongs to Cc1ccc(C(=O)C2=C(O)C(=O)N(c3nc4ccc(Cl)cc4s3)C2c2ccc3c(c2)OCCO3)o1 (stereo not shown) ?
Result: 236 to 237 °C
